The entries below are paired with their reported activity at 0.1 µM.
# Test system: Rat white adipocytes
# method.description: Inhibition of the differentiation of adipocytes (Oil Red O)
# Format: cell-based
# run.conditions: Rattus norvegicus, Adipocyte, 120 h, 100 nM test compound; 5 days; Oil Red O ABS550; control = 100%, blank = 0%; Table 3; read-out: Rate of Differentiation (%)
Express the result in % but write the number alone.

The cases that follow already have their activity at 0.1 µM on record.
# record.smiles, tested.target, numeric.value
data = [
    ("O=C(Nc1cccc(O)c1)c1cc([N+](=O)[O-])ccc1Cl", "Rat white adipocytes", 63.4),
    ("O=C(NC(=S)NCCc1ccc(NC(=O)c2cc([N+](=O)[O-])ccc2Cl)cc1)c1ccccc1", "Rat white adipocytes", 45.4),
    ("O=C(Nc1ccc(-n2ccnc2)cc1)c1cc([N+](=O)[O-])ccc1Cl", "Rat white adipocytes", 68.8),
]

Kindly consider the entry below.
-- ask Report activity at 0.1 µM from Rat white adipocytes testing of O=C(Nc1ccc(-c2ccc(NC(=O)c3cc([N+](=O)[O-])ccc3Cl)cc2)cc1)c1cc([N+](=O)[O-])ccc1Cl
-- reply 48
